Target: glucosylceramide synthase (Homo sapiens, UniProt Q16739)
Construct: made in house; host or cells: Expi293F cells (transient expression, pcDNA3.3-TOPO vector); microsome fraction used as enzyme source
Sequence (Q16739 whole entry): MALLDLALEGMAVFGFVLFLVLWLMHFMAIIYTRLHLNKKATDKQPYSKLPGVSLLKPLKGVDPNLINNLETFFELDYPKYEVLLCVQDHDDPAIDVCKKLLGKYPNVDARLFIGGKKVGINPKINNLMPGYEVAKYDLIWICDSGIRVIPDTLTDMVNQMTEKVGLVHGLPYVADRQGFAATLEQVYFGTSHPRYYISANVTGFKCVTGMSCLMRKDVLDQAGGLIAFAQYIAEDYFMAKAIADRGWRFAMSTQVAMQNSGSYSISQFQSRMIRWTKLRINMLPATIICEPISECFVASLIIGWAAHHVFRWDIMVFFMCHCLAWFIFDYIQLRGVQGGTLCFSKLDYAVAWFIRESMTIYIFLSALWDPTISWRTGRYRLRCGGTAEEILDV
Test: Glucosylceramide synthase (GCS) enzyme assay, microsome fraction, C8 glucosylceramide quantified by Rapidfire MS/MS
Type: biochemical
Settings: test compound 10 μM; 1.7 μM UDP-glucose, 3 μM C8 ceramide; room temperature 60 min; read-out: GCS enzyme inhibitory rate at 10 μM (%) (% of control)
RECORDED_METRIC: inhibition at 10 µM (%)

compound=COc1cccc(F)c1-c1nccc2c1CN(c1ccc(F)cc1)C2=O measured_target="glucosylceramide synthase (Homo sapiens, UniProt Q16739)" obs_value=77
compound=CC(C)(O)c1ccc(N2Cc3c(ccnc3-c3ccc(F)cc3OCC(F)F)C2=O)nc1 measured_target="glucosylceramide synthase (Homo sapiens, UniProt Q16739)" obs_value=98
compound=CC(C)(O)C(F)(F)c1ccc(N2Cc3c(ccnc3-c3ccncc3OCC(F)(F)F)C2=O)cc1 measured_target="glucosylceramide synthase (Homo sapiens, UniProt Q16739)" obs_value=94
compound=COc1ccccc1-c1nccc2c1CN(c1ccc(C)cc1)C2=O measured_target="glucosylceramide synthase (Homo sapiens, UniProt Q16739)" obs_value=99
compound="CC(O)(c1ccc(N2Cc3c(ccnc3-c3ccccc3OCC(F)(F)F)C2=O)cc1)C(F)F (racemic) [Example 308]" measured_target="glucosylceramide synthase (Homo sapiens, UniProt Q16739)" obs_value=100
compound=O=C1c2ccnc(-c3ccc(F)cc3OCC(F)(F)F)c2CN1c1ccc(OC(F)F)nn1 measured_target="glucosylceramide synthase (Homo sapiens, UniProt Q16739)" obs_value=85
compound=CC(C)(O)C(F)(F)c1ccc(N2Cc3c(ccnc3-c3ccccc3OCC(F)(F)F)C2=O)cc1 measured_target="glucosylceramide synthase (Homo sapiens, UniProt Q16739)" obs_value=99
compound=O=C(c1ccc(-c2nccc3c2CN(c2ccc(OC(F)F)nc2)C3=O)c(OC(F)F)c1)N1CCC1 measured_target="glucosylceramide synthase (Homo sapiens, UniProt Q16739)" obs_value=94
compound=O=C(c1ccc(-c2nccc3c2CN(c2ccc(F)cc2)C3=O)c(OC(F)F)c1)N1CCC1 measured_target="glucosylceramide synthase (Homo sapiens, UniProt Q16739)" obs_value=79
compound=CC(C)(O)c1ccc(N2Cc3c(ccnc3-c3c(F)cc(F)cc3OCC(F)(F)F)C2=O)cc1 measured_target="glucosylceramide synthase (Homo sapiens, UniProt Q16739)" obs_value=99
compound=CC(C)(O)c1ccc(N2Cc3c(ccnc3-c3ccccc3OCC(F)(F)F)C2=O)cn1 measured_target="glucosylceramide synthase (Homo sapiens, UniProt Q16739)" obs_value=96
compound=Cc1cc2c(c(-c3ccc(F)cc3OCC(F)(F)F)n1)CN(c1ccc(C(C)(C)O)cc1)C2=O measured_target="glucosylceramide synthase (Homo sapiens, UniProt Q16739)" obs_value=100
compound=COc1cc(C(=O)N2CCC2)ccc1-c1nccc2c1CN(c1ccc(OC(F)F)cc1)C2=O measured_target="glucosylceramide synthase (Homo sapiens, UniProt Q16739)" obs_value=95
compound=CC(C)(O)c1ccc(N2Cc3c(cc(C(F)F)nc3-c3ccccc3OCC(F)(F)F)C2=O)cn1 measured_target="glucosylceramide synthase (Homo sapiens, UniProt Q16739)" obs_value=100
compound=CC(C)(O)c1ccc(N2Cc3c(cc(C(F)F)nc3-c3ccccc3OCC(F)(F)F)C2=O)cc1 measured_target="glucosylceramide synthase (Homo sapiens, UniProt Q16739)" obs_value=100
compound=O=C1c2ccnc(-c3ccccc3OCC(F)(F)F)c2CN1c1ccc(O[C@H]2CCOC2)cc1 measured_target="glucosylceramide synthase (Homo sapiens, UniProt Q16739)" obs_value=100
